# MIC P. aerug. per entry
System: P. aeruginosa
Where a SMILES comes first, the peptide text is derived from it. [ ]: non-standard residue; d: D form. The star is where a group is joined. Phe(4-tBu) = CC(C)(C)c1ccc(C[C@H](N)C(=O)O)cc1; Bip = N[C@@H](Cc1ccc(-c2ccccc2)cc1)C(=O)O; tBuAla = CC(C)(C)C[C@H](N)C(=O)O; Tle = CC(C)(C)[C@H](N)C(=O)O; OBn = c1ccc(CO*)cc1
quantity_kind: MIC P. aerug.

compound: N=C(N)NCCC[C@H](NC(=O)[C@@H](N)Cc1ccc(-c2ccccc2)cc1)C(=O)OCc1ccccc1 [BipR-OBzl] (H-[Bip]-Arg-OBn; N-terminus assumed)
recorded_value: 100.0 µg/mL

compound: CC(C)(C)[C@H](N)C(=O)N[C@@H](CCCNC(=N)N)C(=O)OCc1ccccc1 [tBuGR-OBzl] (H-[Tle]-Arg-OBn; N-terminus assumed)
recorded_value: >300.0 µg/mL

compound: CC(C)(C)c1ccc(C[C@H](N)C(=O)N[C@@H](CCCNC(=N)N)C(=O)OCc2ccccc2)cc1 [tBuFR-OBzl] (H-[Phe(4-tBu)]-Arg-OBn; N-terminus assumed)
recorded_value: 100.0 µg/mL

compound: N=C(N)NCCC[C@H](NC(=O)[C@@H](N)Cc1c[nH]c2ccccc12)C(=O)OCc1ccccc1 [WR-OBzl] (H-Trp-Arg-OBn; N-terminus assumed)
recorded_value: >300.0 µg/mL

compound: CC(C)(C)C[C@H](N)C(=O)N[C@@H](CCCNC(=N)N)C(=O)OCc1ccccc1 [tBuAR-OBzl] (H-[tBuAla]-Arg-OBn; N-terminus assumed)
recorded_value: >300.0 µg/mL

compound: COC(=O)[C@H](CCCNC(=N)N)NC(=O)[C@@H](N)Cc1ccc(C(C)(C)C)cc1 [tBuFR-OMe] (H-[Phe(4-tBu)]-Arg-OMe; N-terminus assumed)
recorded_value: >300.0 µg/mL
